Item-by-item account of SPR binding (control subtracted)
Target: T1, murine CD300C-Fc (mouse)
T1 construct: mouse IgG2a-Fc fusion (R&D Systems); the entry is the whole fusion chain; also called mCD300C; Mouse CD300C-Fc
T1 chain: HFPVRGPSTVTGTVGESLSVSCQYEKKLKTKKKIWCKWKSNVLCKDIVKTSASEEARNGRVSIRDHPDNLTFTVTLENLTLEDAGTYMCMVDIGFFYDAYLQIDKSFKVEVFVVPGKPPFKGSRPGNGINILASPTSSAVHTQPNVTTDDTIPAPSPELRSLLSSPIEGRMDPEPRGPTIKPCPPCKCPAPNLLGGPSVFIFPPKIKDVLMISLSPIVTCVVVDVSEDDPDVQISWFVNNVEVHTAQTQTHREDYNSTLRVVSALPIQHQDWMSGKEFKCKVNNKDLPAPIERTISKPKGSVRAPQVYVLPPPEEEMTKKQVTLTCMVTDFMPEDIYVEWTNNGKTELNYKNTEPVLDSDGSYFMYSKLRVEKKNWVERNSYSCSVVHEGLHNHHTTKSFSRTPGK
Assay: SPR (Carterra LSA), antibody immobilised, Fc fusion at 300 or 600 nM
// return just the number, without any unit appended

Study these solved cases before continuing.
BINDER | SPR binding (control subtracted)
anti-CD300LB antibody CD-17 (antibody, V domains shown) VH: QIQLVQSGPELKKPGETVKISCKASGYTLTDYSMHWVKQAPGKGLKWMGWINTETGEPRYGDDFKGRFAFSLETSASSAYLQINNLKNDDTATYFCATYGRSYGMDFWGQGTSVTVSS VL: DIVLTQSPASLAVSLGQRATISCRASKSVSPSGHSYMHWYQQKPGQPPKLLIYLASNLKSGVPARFSGSGSGTDFTLNIHPVEEGDAATYYCQHNRELPPTFGGGSKLEIK | 1.5
anti-CD300LB antibody CD-14 (antibody, V domains shown) VH: QIQLVQSGPELKKPGETVKISCKASGYTFTDYSLHWVKQTPEKNLKWMAWINTETGAPTYADDFKGRFAFSLETSSNTAYLLINNLKNEDTATYFCALTMVNYWGQGTTLTVSS VL: DIVMTQSQKFMSTSVGDRVSVTCKASQNVGIRVAWHQQKPGQSPKTLIYSTSYRYSGVPDRFTGSGSGTEFILTISNVQSEDLAEYFCQQYNSYPYTFGGGTKLEIK | 17.9
anti-CD300LB antibody CD-15 (antibody, V domains shown) VH: QIQLVQSGPELKKPGETVKISCQVSGYTFTDYSMHWLKQAPGKGLKWMAWINTETGESTYTDEFKGRFVFSLETSVRTAYLKINNLKNEDTATYFCGTYGSSYGMAYWGQGTSVTVSS VL: DIVLTQSPASLPVSLGQRATISCRASKSVSTSGSSYLHWYQQKPGQPPKLLIYLASKLESGVPARFRGSGSGTDFTLNIHPVEEEDAATYYCQHNREVPPTFGGGTKLEIK | 13.3

Below: the item to evaluate.
// SPR binding (control subtracted) lookup, binder = anti-CD300LB antibody CD-12 (antibody, V domains shown) VH: QIQLVQSGPELKKPGETVKISCKASGYTFTDYSMHWVRQAPGKGLKWMAWINTETGEATHADDFKGRFDFSLDTSASTAYLQIKNLKNEDTGIYFCVCYGSSYGMDYWGQGTSVTVSS VL: DIVLTQSPASLPVSLGQRATISCRASKSVRTSGASYMHWYQQKPGQPPKLLIYLASNLKSGVPTRFSGSGSGTDFTLNIHPVEEEDAATYYCQHNREVPPTFGGGTKLEIK , result: 2.5
